Origin of values: the RNAGym collection of RNA variant scans (doi:10.7554/elife.80360)

# self-cleavage annotations
B1: HDV Ribozyme (parent)
chain: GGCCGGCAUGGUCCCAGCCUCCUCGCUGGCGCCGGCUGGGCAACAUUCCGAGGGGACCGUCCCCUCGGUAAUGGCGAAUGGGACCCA

variants of: B1; test: self-cleavage, relative activity (ratio to wild type); higher = more cleavage; co-transcriptional

SEQUENCE_CODE	self-cleavage
GGCCGGGAUGGUCCCAGCCUCCUCGCUGGCGCCGGCUGGGCAACAUUCCGAGGGGACCGUCCCCUCGGUAGUGGCGAAUGGGACCCA	0.151
GGCCGGCAUGGUCCCAGCCUCCUCGCUGGCGCCGCCUGUGCAACAUUCCGAGGGGACCGUCCCCUCGGUAAUGGCGAAUGGGACCCA	0.0302
GGCCGGCAUGGUCCCAGCCUCCUCGCUGGCGCCGGCUGGGCAACAUUCCGAGGGGACCGUGCCCUCGGUAUUGGCGAAUGGGACCCA	0.997
GGCCGGCAUGGUCCCAGCCUCCUCGCUGGGGACGGCUGGGCAACAUUCCGAGGGGACCGUCCCCUCGGUAAUGGCGAAUGGGACCCA	0.115
GGCCGGCAUGGUCCCAGCCUCCUCGCUGGGGCCGGCUGGGCAACAUUCCGAGAGGACCGUCCCCUCGGUAAUGGCGAAUGGGACCCA	0.0482
GGCCGGCAUGGUCCCAGCCUCCUCGCUGGCGCCGGCUGGGCAGCAUUCCGAGGGGACCGUCCCCUCGGUAAUGGCGAAUGGGCCCCA	0.268
GGCCGGCAUGGUCCCAGCGUCCUCGCUGGCGCCGGCUGGGCAACAUUCCGAGGGGACCGUACCCUCGGUAAUGGCGAAUGGGACCCA	0.106
GGCCGGCAUGGUCCCAGCCUCCUCGCUGGCGCAGGCUGGGCAACAUUCCGAGGGGACCGUCCCCUCGGUAAUGGCGAAUGAGACCCA	0.0339
GGCCGGCAUGGUCCCAGCCCCCUCGCUGGCGCCGGCUGGGCAACAUUCCGAGGGGACCGUCCCCUCGGUAAUGGCGUAUGGGACCCA	0.0898
GGCCGGCAUGGUCCCAGCCUCCUCGCUCGCGCCGGCUGUGCAACAUUCCGAGGGGACCGUCCCCUCGGUAAUGGCGAAUGGGACCCA	0.125
GGCCGGCAUGGUCCCAGCCUCCUCGCUGGCGCCGGCUAGGCAACAUUCCGAGAGGACCGUCCCCUCGGUAAUGGCGAAUGGGACCCA	0.113
GGCCGGCAUGGUCCCAGCCGCCUCGCUGGCGCCGGCUGGGCAACAUUCCGAGGGGACCGCCCCCUCGGUAAUGGCGAAUGGGACCCA	0.111
GGCCGGCAUGGUGCCAGCCUCCUUGCUGGCGCCGGCUGGGCAACAUUCCGAGGGGACCGUCCCCUCGGUAAUGGCGAAUGGGACCCA	0.0504
GGCCGGCAUGGUCCCAGCCUCCUCGCUGGCGCCGGCUGGGCAACAUUUCGAGGGGACCGUCCCCUCGGUAAUGGCGAGUGGGACCCA	0.522
GGCCGGCAUGGUCCCAGCCUCCUCGCUGGCGACGGCUGGGCAACAUUCCGAGGGGACCGUCCCCUCGGUAAUGGCGUAUGGGACCCA	0.108
GGCCGGCAUGGUCCCAGCCUCCUCGCUGGCGCCGGCUGGGCAACAUUCCGAGGGGACUGUCCCCUCGGUAAUGGCGAAUGGGAGCCA	0.665
GGCCGGCAUGGUCCCAGCCACCUCGCUGGCGCCGGCUGGGCAACAUUCCGAGGGGACCGUCCCCUCGGUAAUGGCGAAUGGGAACCA	0.208
GGCCGGCAUGGUCCCUGCCUCCUCGCUGGCGCCGGCUGGGCAACAUUCCGAGGGGACCGUCCCCUCGGUAAUGUCGAAUGGGACCCA	0.394
GGCCUGCAUGGUCCCAGCCUCCUCGCUGGCGCCGGCUGGGCAACAUUCCGAGGGGACCGUCCCCUCGGUAAUGGCGAAUGGGGCCCA	0.0573
GGCCGGCAGGGUCGCAGCCUCCUCGCUGGCGCCGGCUGGGCAACAUUCCGAGGGGACCGUCCCCUCGGUAAUGGCGAAUGGGACCCA	1.2
GGCCGGCAUGGUCCCAGCCUCCUCGCUGGCGCCGGCCGGGCAACAUACCGAGGGGACCGUCCCCUCGGUAAUGGCGAAUGGGACCCA	0.864
GGCCGGCAUGGUCCCAGCCUCCUCGCUGGCGCCGGCUGGGCAACAUUCCGAGGGGGCCGUCCCCUCGGUGAUGGCGAAUGGGACCCA	1.14
GGCCGGCAGGGUCCCAGCCUCCUCGCUGGCGCCGGCUGGGCAACAUUCCGAGGGGACCGUCCCCUCGGUAAAGGCGAAUGGGACCCA	0.633
GGCCGGCAUGGUCCCAGCCUCCUCGCUGUCGCCGGCUGGGCAACAUUCCGAGGGGACCGUCCCCUCGGAAAUGGCGAAUGGGACCCA	0.0875
GGCCAGCAUGGUCCCAGCCUCCUCGCUGGCGCCGGCUGGGCAACAUUCCGAGGGGACCCUCCCCUCGGUAAUGGCGAAUGGGACCCA	0.219
GGCCGGCAUGGUCCCAGCCUCCUCGCUGGAGCCGGCUGGGCAACAUUCCGAGGGGACCGUCCCCCCGGUAAUGGCGAAUGGGACCCA	0.644
GGCCGGCAUGGUCCCAGACUCCUCCCUGGCGCCGGCUGGGCAACAUUCCGAGGGGACCGUCCCCUCGGUAAUGGCGAAUGGGACCCA	0.0405
GACCGGCAUGGUCCCAGCCUCCUCGCUGGCGCCGGCUGGGCAACAUUCCGAGGGGACCGUCCCCUCGGUAACGGCGAAUGGGACCCA	0.0455
GGCCGGCAUGGUCCCAGCCGCCUCGCUGGCGCCGGCUGGGCAACAUUCCGAGGGGACCGUCCCCUCGGUAAUGGCGGAUGGGACCCA	0.0692
UGCCGGCAUGGUCCCAGACUCCUCGCUGGCGCCGGCUGGGCAACAUUCCGAGGGGACCGUCCCCUCGGUAAUGGCGAAUGGGACCCA	0.304
GGCCAGCAUCGUCCCAGCCUCCUCGCUGGCGCCGGCUGGGCAACAUUCCGAGGGGACCGUCCCCUCGGUAAUGGCGAAUGGGACCCA	0.308
GGCCGACAUGGUCCCAGCCUCCUCGCUGGCGCCGGCUGGGCAACAUUCCGAGUGGACCGUCCCCUCGGUAAUGGCGAAUGGGACCCA	0.786
GGCCGGCAUGGUCCCAGCCUCCUCGCUGGCGCCGGCUGGGCAACAUGCCGAGGGGACCGUCCCCUCGGUCAUGGCGAAUGGGACCCA	1.22
GGACGGCAUGGUCCCAGCCUCCUCGCUGGCGCCGGCUGGGCAACAUUCCGAGGGGACCGUCACCUCGGUAAUGGCGAAUGGGACCCA	0.511
GGCCGGCAUGGUCCCAGCCUUCUCGCUGGCGCCGGCUGGGCAACAUUCCGAGGGGACCGUCCCCCCGGUAAUGGCGAAUGGGACCCA	0.198
GGCCGGCAUGGUCCCAGCCUCCUCGCUGGCGCCGUCUGGGCUACAUUCCGAGGGGACCGUCCCCUCGGUAAUGGCGAAUGGGACCCA	0.246
GACCGGCAUGGUCCCAGCCUCCGCGCUGGCGCCGGCUGGGCAACAUUCCGAGGGGACCGUCCCCUCGGUAAUGGCGAAUGGGACCCA	0.0886
GGCCGGCAUAGUCCCAGCCUCCUCGCUGGCGCCGGCUGGGCAACAUUCCGAGGCGACCGUCCCCUCGGUAAUGGCGAAUGGGACCCA	0.582
GGCCGGCAUGGUCCCAGCCUCCUCGCUGGCGCCGGCUGGGAAACAUUCCGAGGGGACCGUCCCGUCGGUAAUGGCGAAUGGGACCCA	0.884
AGCCGGCAUGGUCCCAGCCUCCUCGCUGGCGCCGGCUGGGCAACAUUCCGAGGGGACCGUCCCGUCGGUAAUGGCGAAUGGGACCCA	0.095
GGCCGGCAUGGACCCAGCCUCCUCGCUGGCGCCGGCUGGGCAACAUUCCGAGGGGACCGUCCCCUCGGUAAUGGCGAAUUGGACCCA	0.0968
GGCCGGCAUGGUCCCAGCCUCCUCGCUGGCGCCGGCUGGGCCACAUUCCGAGGGGACGGUCCCCUCGGUAAUGGCGAAUGGGACCCA	0.26
GGCCGGCAUGGUCCCAGCCUCCUCGCUGGCGCCGGCUGGGCAACAUUCCGAGGGGACCGUCCCCUUGGUAAUGUCGAAUGGGACCCA	0.475
GGCCGGCAUGGACCCAGCCUCCUCGCUGGCGCCGGCUGGGCAACAUUCCGAGGUGACCGUCCCCUCGGUAAUGGCGAAUGGGACCCA	0.415
GUCCGGCCUGGUCCCAGCCUCCUCGCUGGCGCCGGCUGGGCAACAUUCCGAGGGGACCGUCCCCUCGGUAAUGGCGAAUGGGACCCA	0
GGCCGGCAUGGUCCCAGCCUCCUCGCUGGCGCCGGCUGGGCAACAUUCCGAGGGGACCCACCCCUCGGUAAUGGCGAAUGGGACCCA	1.09
